Data origin, for the record: patent US20230399296A1

# assay.remarks: Microsomal stability, mouse liver microsomes
# Type: in vitro ADME
# condition.notes: mouse liver microsomes, NADPH, 37° C.; read-out: Mouse Microsomes Half-life
# Protocol: Experiments were performed to assess the stability of the compounds in the presence of mouse and human liver microsomes. The experimental procedures there were used are described below. Examples of the percent remaining of the compound curves in the presence of human microsomes are shown in FIGS. 2A to 2F, and examples of the determined half-life are provided in TABLE 3. […]
Mark class 1 for reported half-life at 1 μM of 90 min or greater; mark class 0 for anything smaller.

O=C(N[C@@H](CC1CC1)C(=O)N[C@@H](C[C@@H]1CCNC1=O)C(=O)CO)c1cc2cc(F)cc(F)c2[nH]1 [Compound 3]	class 1
O=C(N[C@@H](CC1CC1)C(=O)N[C@@H](C[C@@H]1CCCNC1=O)C(=O)CO)c1cc2cccc(Cl)c2[nH]1 [Compound 2]	class 0
O=C(N[C@@H](CC1CC1)C(=O)N[C@@H](C[C@@H]1CCCNC1=O)C(=O)CO)c1cc2cc(F)cc(F)c2[nH]1 [Compound 1]	class 0
O=C(N[C@@H](CC1CC1)C(=O)N[C@@H](C[C@@H]1CCNC1=O)C(=O)CO)c1cc2cccc(Cl)c2[nH]1 [Compound 4]	class 0

Check if half-life at 1 μM >= 90 min (inclusive). Item: O=C(N[C@@H](CC1CC1)C(=O)N[C@@H](C[C@@H]1CCNC1=O)C(=O)CO)c1cc2cccc(F)c2[nH]1 [Compound 5]
class 1

Quick check: does CC(C)[C@H](N)C(=O)OCC(=O)[C@H](C[C@@H]1CCCNC1=O)NC(=O)[C@H](CC1CC1)NC(=O)c1cc2cc(F)cc(F)c2[nH]1.Cl [Compound 17] have half-life at 1 μM greater than or equal to 90 min?
class 0

---

Form field: pIC50 (one value per entry).
# target.desc: SARS-CoV-2 3CLP (Severe acute respiratory syndrome coronavirus 2 (2019-nCoV) (SARS-CoV-2), UniProt P0DTD1)
pIC50: −log10 of the molar value.

For orientation, consider the following solved cases.
CC(C)[C@H](N)C(=O)OCC(=O)[C@H](C[C@@H]1CCCNC1=O)NC(=O)[C@H](CC1CC1)NC(=O)c1cc2cc(F)cc(F)c2[nH]1.Cl [Compound 17, hydrochloride Salt]	> 7.30
O=C(N[C@@H](CC1CC1)C(=O)N[C@@H](C[C@@H]1CCNC1=O)C(=O)CO)c1cc2cccc(Cl)c2[nH]1	> 8.00

Record request: pIC50 value, item "O=C(N[C@@H](CC1CC1)C(=O)N[C@@H](C[C@@H]1CCCNC1=O)C(=O)CO)c1cc2cc(F)cc(F)c2[nH]1"
> 7.30

# input molecule: "O=C(N[C@@H](CC1CC1)C(=O)N[C@@H](C[C@@H]1CCCNC1=O)C(=O)CO)c1cc2cccc(F)c2[nH]1" ; wanted: its pIC50
> 8.00

What value of measured pIC50 is listed for "O=C(N[C@@H](CC1CC1)C(=O)N[C@@H](C[C@@H]1CCCNC1=O)C(=O)CO)c1cc2cccc(Cl)c2[nH]1" ?
> 7.30

I have this molecule here, "O=C(N[C@@H](CC1CC1)C(=O)N[C@@H](C[C@@H]1CCNC1=O)C(=O)CO)c1cc2cccc(F)c2[nH]1" , and I need its recorded pIC50.
> 7.30

Look up pIC50 for this molecule: "O=C(N[C@@H](CC1CC1)C(=O)N[C@@H](C[C@@H]1CCNC1=O)C(=O)CO)c1cc2cc(F)cc(F)c2[nH]1"
> 8.00
